# TESTED_SYSTEM: MAP kinase-activated protein kinase 2 (Homo sapiens, UniProt P49137)
# Sequence (P49137 whole entry): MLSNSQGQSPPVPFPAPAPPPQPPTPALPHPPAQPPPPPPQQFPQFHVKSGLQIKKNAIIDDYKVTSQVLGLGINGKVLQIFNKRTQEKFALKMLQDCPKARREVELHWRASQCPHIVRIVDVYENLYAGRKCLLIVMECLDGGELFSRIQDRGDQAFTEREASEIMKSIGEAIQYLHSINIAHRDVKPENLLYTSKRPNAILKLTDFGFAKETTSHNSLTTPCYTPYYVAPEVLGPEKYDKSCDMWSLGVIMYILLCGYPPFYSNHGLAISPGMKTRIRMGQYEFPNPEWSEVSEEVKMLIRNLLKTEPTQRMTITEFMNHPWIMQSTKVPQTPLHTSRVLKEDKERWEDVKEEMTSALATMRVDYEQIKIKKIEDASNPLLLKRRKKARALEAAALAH
# ASSAY_COMMENT: Inhibition of MK2 in human TERT immortalised HCA2 cells assessed as inhibition of anisomycin-induced HSP27 phosphorylation by ELISA
ASSAY_ENDPOINT: pIC50
Numbers only, as −log10 of the molar value.

Entry "N#Cc1c(N)nc2c(c1N)Cc1cc(O)c(O)cc1O2" : reported pIC50 = ? 5.60
